# assay.system: CDK-6/cyclinD3 (Homo sapiens)
# Sequence (Q00534 whole entry, species assumed): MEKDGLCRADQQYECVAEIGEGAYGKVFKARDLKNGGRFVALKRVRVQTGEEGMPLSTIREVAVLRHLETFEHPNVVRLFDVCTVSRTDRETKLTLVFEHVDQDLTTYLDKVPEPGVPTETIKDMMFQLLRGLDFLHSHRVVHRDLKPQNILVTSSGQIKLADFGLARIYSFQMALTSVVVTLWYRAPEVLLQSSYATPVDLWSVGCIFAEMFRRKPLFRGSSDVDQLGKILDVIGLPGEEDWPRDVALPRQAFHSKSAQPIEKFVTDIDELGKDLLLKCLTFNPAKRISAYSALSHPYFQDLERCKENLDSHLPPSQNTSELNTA
# Sequence (P30281 whole entry partner, species assumed): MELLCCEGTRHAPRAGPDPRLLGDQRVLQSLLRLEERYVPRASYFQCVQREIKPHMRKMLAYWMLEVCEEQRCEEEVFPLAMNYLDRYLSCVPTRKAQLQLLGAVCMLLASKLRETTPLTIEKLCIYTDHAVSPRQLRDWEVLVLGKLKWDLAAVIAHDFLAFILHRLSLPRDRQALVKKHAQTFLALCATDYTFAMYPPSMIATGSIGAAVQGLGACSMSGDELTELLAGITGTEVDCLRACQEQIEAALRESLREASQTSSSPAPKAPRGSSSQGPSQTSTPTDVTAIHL
# assay.details: CDK panel (Reaction Biology)
# Type: biochemical
# condition.description: tested at Reaction Biology, Inc.
value.type: IC50 (µM)
Report the figure in µM without appending any unit label.

| smiles.record | assay.system | reported.result |
| --- | --- | --- |
| COc1cccc2c(C3=C(c4cn(C)c5cc(Cl)c(F)cc45)C(=O)NC3=O)coc12 | CDK-6/cyclinD3 (Homo sapiens) | 165 |
| COCc1cccc2c(C3=C(c4coc5ccccc45)C(=O)NC3=O)cn(C)c12 | CDK-6/cyclinD3 (Homo sapiens) | 8.33 |
| Cn1cc(C2=C(c3coc4cc(CO)ccc34)C(=O)NC2=O)c2cc(Br)ccc21 | CDK-6/cyclinD3 (Homo sapiens) | 0.51 |

Now consider a different compound.
[ask] Item Cn1cc(C2=C(c3coc4cc(CO)ccc34)C(=O)NC2=O)c2cc(F)c(Cl)cc21 has what recorded IC50?
[reply] 11.6

* * *

# assay.system: KDR (Homo sapiens, UniProt P35968)
# Sequence (P35968 20-1356, species assumed): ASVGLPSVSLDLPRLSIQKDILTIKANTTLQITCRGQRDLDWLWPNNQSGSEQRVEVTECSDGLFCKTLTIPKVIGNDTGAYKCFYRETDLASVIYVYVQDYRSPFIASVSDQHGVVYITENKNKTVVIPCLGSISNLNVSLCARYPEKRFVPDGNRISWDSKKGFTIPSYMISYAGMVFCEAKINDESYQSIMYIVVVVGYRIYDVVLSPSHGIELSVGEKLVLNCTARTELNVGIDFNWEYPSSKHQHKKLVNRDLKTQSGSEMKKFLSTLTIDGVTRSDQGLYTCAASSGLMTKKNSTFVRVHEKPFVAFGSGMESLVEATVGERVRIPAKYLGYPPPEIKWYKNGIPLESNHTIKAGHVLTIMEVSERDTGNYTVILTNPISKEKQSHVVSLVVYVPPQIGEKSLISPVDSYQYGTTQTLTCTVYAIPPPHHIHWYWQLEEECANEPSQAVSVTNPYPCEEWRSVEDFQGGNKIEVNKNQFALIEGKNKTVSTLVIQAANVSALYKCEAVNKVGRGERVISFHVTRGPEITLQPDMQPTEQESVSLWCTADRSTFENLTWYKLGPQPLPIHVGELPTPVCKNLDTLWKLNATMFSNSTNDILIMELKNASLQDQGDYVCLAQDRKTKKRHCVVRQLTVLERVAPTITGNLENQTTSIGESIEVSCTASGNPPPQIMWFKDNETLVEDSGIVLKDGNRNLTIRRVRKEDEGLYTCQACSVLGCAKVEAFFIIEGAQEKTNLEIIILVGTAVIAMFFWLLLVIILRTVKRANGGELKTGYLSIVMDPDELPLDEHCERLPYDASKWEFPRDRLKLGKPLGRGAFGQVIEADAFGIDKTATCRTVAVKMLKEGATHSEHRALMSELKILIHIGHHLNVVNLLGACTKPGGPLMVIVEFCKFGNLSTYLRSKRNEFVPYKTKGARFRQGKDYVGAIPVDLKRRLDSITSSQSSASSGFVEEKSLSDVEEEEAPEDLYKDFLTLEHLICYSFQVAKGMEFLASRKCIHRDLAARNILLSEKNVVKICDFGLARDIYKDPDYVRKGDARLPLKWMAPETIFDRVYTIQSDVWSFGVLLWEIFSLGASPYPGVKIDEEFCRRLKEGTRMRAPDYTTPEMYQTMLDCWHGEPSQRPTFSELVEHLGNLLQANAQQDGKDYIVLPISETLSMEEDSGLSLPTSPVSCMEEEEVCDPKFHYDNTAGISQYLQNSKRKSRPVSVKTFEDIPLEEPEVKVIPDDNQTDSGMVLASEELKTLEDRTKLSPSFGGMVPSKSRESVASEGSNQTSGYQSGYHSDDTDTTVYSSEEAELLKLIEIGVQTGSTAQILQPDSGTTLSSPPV
# assay.details: Kinase panel (Novartis)
# Format: biochemical
value.type: IC50 (µM)
Numeric answer only, unit µM assumed.

[ask] Please report the recorded IC50 for Cn1cc(C2=C(c3coc4ccccc34)C(=O)NC2=O)c2ccc(O)cc21 [Compound 45] .
[reply] 2.2

* * *

# assay.system: FGFR-3-K650E (Homo sapiens, UniProt P22607, K650E)
# Sequence (P22607 23-806 K650E): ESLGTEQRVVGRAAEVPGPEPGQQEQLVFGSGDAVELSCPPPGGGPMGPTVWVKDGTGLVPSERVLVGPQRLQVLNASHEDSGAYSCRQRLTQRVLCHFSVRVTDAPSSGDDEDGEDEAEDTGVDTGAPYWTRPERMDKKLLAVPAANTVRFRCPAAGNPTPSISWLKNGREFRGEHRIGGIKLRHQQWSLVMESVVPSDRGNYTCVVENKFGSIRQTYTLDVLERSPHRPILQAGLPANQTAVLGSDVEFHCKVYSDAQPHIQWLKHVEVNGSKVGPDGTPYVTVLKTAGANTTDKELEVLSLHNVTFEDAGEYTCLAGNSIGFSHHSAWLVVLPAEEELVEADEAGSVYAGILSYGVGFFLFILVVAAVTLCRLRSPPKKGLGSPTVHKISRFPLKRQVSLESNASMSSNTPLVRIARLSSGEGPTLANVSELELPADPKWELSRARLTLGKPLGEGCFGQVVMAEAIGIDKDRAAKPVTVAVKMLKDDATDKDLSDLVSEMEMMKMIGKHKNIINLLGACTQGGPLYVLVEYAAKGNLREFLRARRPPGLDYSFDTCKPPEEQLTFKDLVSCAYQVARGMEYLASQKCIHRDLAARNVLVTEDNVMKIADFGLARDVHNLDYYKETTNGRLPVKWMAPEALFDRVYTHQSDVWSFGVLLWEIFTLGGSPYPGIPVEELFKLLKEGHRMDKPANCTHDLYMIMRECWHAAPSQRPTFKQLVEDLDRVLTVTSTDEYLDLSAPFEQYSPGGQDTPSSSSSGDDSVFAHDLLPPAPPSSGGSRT
# assay.details: Kinase panel (Novartis)
# Assay type: biochemical
value.type: IC50 (µM)
Could you give me the number in µM? Just the number is fine.

[ask] Endpoint output: IC50 of Cn1cc(C2=C(c3coc4ccccc34)C(=O)NC2=O)c2ccc(O)cc21 . Value?
[reply] 7

* * *

# assay.system: recombinant human His6-GSK-3β (Homo sapiens)
# Construct: His6; purchased EMD Biosciences
# Sequence (P49841 whole entry): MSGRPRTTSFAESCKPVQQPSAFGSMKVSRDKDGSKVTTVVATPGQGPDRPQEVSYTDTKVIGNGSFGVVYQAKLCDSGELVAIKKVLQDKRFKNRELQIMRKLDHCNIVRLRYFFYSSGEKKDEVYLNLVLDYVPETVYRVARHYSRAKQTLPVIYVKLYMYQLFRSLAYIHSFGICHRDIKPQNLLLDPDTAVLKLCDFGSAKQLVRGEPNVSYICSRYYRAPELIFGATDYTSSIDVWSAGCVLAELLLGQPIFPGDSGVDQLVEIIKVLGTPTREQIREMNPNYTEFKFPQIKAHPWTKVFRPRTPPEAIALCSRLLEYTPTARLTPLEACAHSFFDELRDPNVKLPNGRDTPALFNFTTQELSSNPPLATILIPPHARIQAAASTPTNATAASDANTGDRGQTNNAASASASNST
# assay.details: GSK-3β kinase assay, [γ32P] transfer to primed glycogen synthase peptide;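 note: phosphate incorporation quantified by liquid scintillation counting of the filters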
# Type: biochemical
# condition.description: 10 μM ATP; 10 μM pGSM peptide; 30 minutes at 30° C.; read-out: IC50 (nM), GSK-3β inhibition
value.type: IC50 (nM)
Hi! Could you send only the number? It should be in nM, unit omitted.

Some solved cases for reference:
| smiles.record | IC50 [nM] |
| --- | --- |
| COc1cccc2c(C3=C(c4cn(C)c5cc(Br)c(F)cc45)C(=O)NC3=O)coc12 | 59.7 |
| Cn1cc(C2=C(c3coc4ccc(Br)cc34)C(=O)NC2=O)c2ccccc21 | 550 |
| COc1ccc(COc2ccc3c(C4=C(c5cn(C)c6ccc(Br)cc56)C(=O)NC4=O)coc3c2)cc1 | 335 |
| O=C1NC(=O)C(c2cn(CCCO)c3ccc(Br)cc23)=C1c1coc2ccccc12 | 1.61 |
| O=C1NC(=O)C(c2coc3ccccc23)=C1c1c[nH]c2ccc(OCc3ccccc3)cc12 | 1650 |
| Cn1cc(C2=C(c3coc4ccc(F)cc34)C(=O)NC2=O)c2cc3c(cc21)OCO3 | 708 |
| Cn1cc(C2=C(c3coc4ccccc34)C(=O)NC2=O)c2ccc(O)cc21 | 15 |
| Cn1cc(C2=C(c3coc4ccccc34)C(=O)NC2=O)c2ccc(OCc3ccccc3)cc21 | 900 |

[ask] Fill in: IC50 of COc1cccc2c(C3=C(c4cn(C)c5c(Br)cc(Br)cc45)C(=O)NC3=O)coc12 is ___
[reply] 88.7

[ask] Look up IC50 for this compound: O=C1NC(=O)C(c2coc3ccccc23)=C1c1c[nH]c2ccc(F)cc12
[reply] 360

[ask] Given the entry COc1cc2c(C3=C(c4coc5ccccc45)C(=O)NC3=O)cn(C)c2cc1I , report its measured IC50.
[reply] 223
